Data provenance: ChEMBL document CHEMBL4411305

Kindly state intrinsic clearance (CLint) for each of the entries shown.
- experiment-description: Intrinsic clearance in human liver microsomes assessed as glucuronidation per mg protein at 1 uM in presence of UDPGA by LC-MS/MS analysis
- Type: ADME, Microsome

The cases that follow already have their intrinsic clearance (CLint) on record.
Cc1c(C(=O)Nc2ccc(F)c(Cl)c2)sc(N)c1C(N)=O    < 0.1 µL/min
Cc1c(C(=O)Nc2ccc(F)c(C#N)c2)sc(N)c1C(N)=O    0.1 µL/min

I'm hoping you can list intrinsic clearance (CLint) for every molecule here, please.
1. Cc1c(C(=O)Nc2ccc(F)c(F)c2)sc(N)c1C(N)=O
2. Cc1c(C(=O)Nc2ccccc2)sc(N)c1C(N)=O
3. Cc1cc(NC(=O)c2sc(N)c(C(N)=O)c2C)ccc1F

Return:
["< 0.1 µL/min", "2 µL/min", "< 0.1 µL/min"]

Enquiry: So what does the record say about intrinsic clearance (CLint) for Cc1c(C(=O)Nc2ccc(F)c(C(F)F)c2)sc(N)c1C(N)=O ?
Return: 3.2 µL/min

====

- System: Hepatitis B virus
- experiment-description: Binding affinity to HBV dimeric capsid protein C150 mutant expressed in Escherichia coli BL21 (DE3) at 20 uM by Sypro orange staining based RT-PCR analysis
Calls of active or inactive are those of the source. No rule for the calls is given here.
A correct response names exactly one class from active, inactive

Cc1c(C(=O)Nc2ccccc2)sc(NC(=O)c2cc(Cl)cc(Cl)c2)c1C(N)=O    active
Cc1ccc(CC(=O)Nc2sc(C(=O)Nc3ccccc3)c(C)c2C(N)=O)cc1F    active

Enquiry: Test call, this molecule: NC(=O)c1c(N)sc2c1CCN(C(=O)c1ccccc1)C2
Return: inactive

Enquiry: Test call, this molecule: Cc1c(C(=O)Nc2ccccc2)sc(N)c1C(N)=O
Return: active

Enquiry: Test call, this molecule: Cc1c(C(=O)Nc2ccccc2)sc(-n2cnnn2)c1C(N)=O
Return: inactive

Enquiry: Test call, this molecule: CCOC(=O)c1c(N)sc(C(=O)Nc2ccccc2)c1C
Return: active

====

- experiment-description: Thermodynamic aqueous solubility in Dulbecco's phosphate buffered saline using solid sample incubated for 72 hrs under shaking condition by LC-MS/MS analysis
- Assay type: physicochemical
- stated-conditions: read-out: Therm_solubility
Kindly state solubility thermodynamic at 72 h for each of the entries shown.
# output: numeric value plus its unit

The cases that follow already have their solubility thermodynamic at 72 h on record.
Cc1c(C(=O)Nc2ccc(F)c(F)c2)sc(N)c1C(N)=O    11 µM
Cc1c(C(=O)Nc2ccc(F)c(C(F)F)c2)sc(N)c1C(N)=O    9.5 µM
Cc1cc(NC(=O)c2sc(N)c(C(N)=O)c2C)ccc1F    31 µM
Cc1c(C(=O)Nc2ccccc2)sc(N)c1C(N)=O    19 µM
Cc1c(C(=O)Nc2ccc(F)c(C#N)c2)sc(N)c1C(N)=O    6.7 µM

Next:
Enquiry: So what does the record say about solubility thermodynamic at 72 h for Cc1c(C(=O)Nc2ccc(F)c(Cl)c2)sc(N)c1C(N)=O ?
Return: 31 µM

====

- Tested on: HepG2
- experiment-description: Cytotoxicity against human HepG2 cells assessed as reduction in cell viability incubated for 2 days prior to compound washout followed by compound redosing and measured after 2 days by XTT assay
- Assay type: cell-based
- stated-conditions: hepg2, 48 h
Kindly state CC50 for each of the entries shown.

The cases that follow already have their CC50 on record.
Cc1c(C(=O)Nc2ccc(F)c(F)c2)sc(N)c1C#N    > 100 µM
CCOC(=O)C1=C(C)NC(c2ncccc2F)=NC1c1ccc(F)cc1Cl (stereo unspecified)    > 100 µM
CC(C)Cc1sc(-c2nccs2)nc1C(=O)NCc1ccc(F)cc1    29 µM
Cc1c(C(=O)Nc2ccccc2)sc(NC(=O)c2nccs2)c1C(N)=O    > 100 µM
Cc1c(C(=O)Nc2ccccc2)sc(NC(=O)c2ccc(S(C)(=O)=O)cc2)c1C(N)=O    > 100 µM

I'm hoping you can list CC50 for every compound here, please.
1. Cc1c(C(=O)Nc2ccc(F)c(F)c2)sc(N)c1C(=O)Nc1ccc(F)c(F)c1
2. Cc1c(C(=O)Nc2ccccc2)sc(NC(=O)c2csc([N+](=O)[O-])c2)c1C(N)=O
3. Cc1c(C(=O)Nc2ccc(F)c(C(F)(F)F)c2)sc(N)c1C(N)=O

Return:
1. 17 µM
2. > 100 µM
3. > 100 µM

I'm hoping you can list CC50 for every compound here, please.
1. Cc1c(C(=O)Nc2ccc(F)c(Cl)c2)sc(N)c1C(N)=O
2. Cc1c(C(=O)Nc2ccccc2)sc(NC(=O)c2cn[nH]c2)c1C(N)=O
3. Cc1cc(NC(=O)c2sc(N)c(C(N)=O)c2C)ccc1F

Return:
> 100 µM
> 100 µM
> 100 µM
